Tested on: SiHa (human cervical carcinoma) cells
TEST_PROTOCOL: Cytotoxic activity, WST-1 assay, SiHa
Type: cell-based
PARTICULARS: 72 h, WST-1, triplicate
Measured IC50, listed per entry for reference.
VALUE_KIND: IC50 (µM)

[[record]]
compound = "COc1ccc([C@@H]2[C@H](N)C(=O)N2c2ccccc2)cc1 (racemic)"
unit_symbol = "µM"
op = "="
observed_result = 6.2

[[record]]
compound = "Cc1ccc([C@H]2[C@H](N)C(=O)N2c2ccccc2)cc1 (racemic)"
unit_symbol = "µM"
op = "="
observed_result = 4.79

[[record]]
compound = "COc1ccc(N2C(=O)[C@@H](N)[C@@H]2c2ccccn2)cc1 (racemic)"
unit_symbol = "µM"
op = ">"
observed_result = 10

[[record]]
compound = "COc1ccc([C@@H]2[C@H](N)C(=O)N2c2ccc(OC)cc2)cc1 (racemic)"
unit_symbol = "µM"
op = "="
observed_result = 4.21

[[record]]
compound = "COc1ccc(N2C(=O)[C@@H](N)[C@H]2c2ccc(OC)c(OC)c2)cc1 (racemic)"
unit_symbol = "µM"
op = "="
observed_result = 5.1

